- Test system: Aspergillus niger
- METHOD_DESCRIPTION: Minimum inhibitory concentration against Aspergillus niger
- Type: functional
READOUT_LABEL: MIC (µg/mL)
Numeric answer only, unit µg/mL assumed.

Enquiry: Quick one: MIC of `O=C1c2ccccc2C(=O)c2cnccc21` ?
Return: 12.5

Enquiry: Please answer likewise for `COc1cccc2c1C(=O)c1ccncc1C2=O`
Return: 12.5

Enquiry: Moving on to the next compound: `Cc1ccnc2c1C(=O)c1c(O)ccc(O)c1C2=O`
Return: 50

Enquiry: Also `O=C1c2cnccc2C(=O)c2c(O)cccc21` ?
Return: 3.13

---

- Tested on: Pseudomonas aeruginosa
- METHOD_DESCRIPTION: Minimum inhibitory concentration against Pseudomonas aeruginosa
- Assay type: functional
Criterion: MIC strictly less than 10 µg/mL. Met: Satisfied. Not met: Not satisfied.

Enquiry: Determine whether this compound shows MIC lower than 10 µg/mL (ties excluded): `O=C1c2ccncc2C(=O)c2c(O)cccc21`
Return: Satisfied

Enquiry: Try this compound too: `COc1cccc2c1C(=O)c1ccncc1C2=O`
Return: Satisfied

Further cases:
Enquiry: I'd appreciate it if you could check whether `Cc1ccnc2c1C(=O)c1ccccc1C2=O` has MIC smaller than 10 µg/mL.
Return: Not satisfied

Enquiry: Continue with `O=C1c2cnccc2C(=O)c2sccc21`
Return: Satisfied

Enquiry: Another compound to look at: `COc1cccc2c1C(=O)c1cnccc1C2=O`
Return: Satisfied

Enquiry: What would you report for `Cc1ccnc2c1C(=O)c1ccccc1-2` ?
Return: Not satisfied

---

- Test system: Staphylococcus aureus
- METHOD_DESCRIPTION: Minimum inhibitory concentration against Staphylococcus aureus
- Format: functional
READOUT_LABEL: MIC

Enquiry: Reported MIC, compound Cc1ccnc2c1C(=O)c1ccccc1-2 [ONYCHINE] : ____
Return: > 100 µg/mL

Enquiry: Now give it for `Cc1cnc2c(c1)C(=O)c1cccc(O)c1C2=O` too.
Return: 12.5 µg/mL

Enquiry: Likewise for `O=C1c2ccncc2C(=O)c2c(O)cccc21` ?
Return: 1.56 µg/mL

Enquiry: Now consider `O=C1c2cnccc2C(=O)c2c(O)cccc21` and answer again.
Return: 1.56 µg/mL

Turning now to a further record.
Enquiry: Suppose we examine the compound `COc1cccc2c1C(=O)c1ccncc1C2=O` ; what MIC value has been reported?
Return: 12.5 µg/mL

---

Collected log10 of MIC values appear next to each entry.
- Test system: Bacillus subtilis
- METHOD_DESCRIPTION: Minimum inhibitory concentration against Bacillus subtilis
- Type: functional
Hello, just confirming the data are log10 of MIC with units of µg/mL.

Examples with their reported log10 of MIC follow.
Enquiry: Test system Bacillus subtilis; read-out log10 of MIC; what value for `O=C1c2ccncc2C(=O)c2c(O)cccc21` ?
Return: 0.50

Enquiry: // next record `Cc1ccnc2c1C(=O)c1cccc(O)c1C2=O`
Return: 1.10

Enquiry: Param item: `COc1cccc2c1C(=O)c1cnccc1C2=O`
Return: 0.50

# input for lookup
Enquiry: Checklist item: log10 of MIC tested on Bacillus subtilis, entry `Cc1cnc2c(c1)C(=O)c1cccc(O)c1C2=O` , value?
Return: 0.80

---

- System: Aspergillus niger
- METHOD_DESCRIPTION: Minimum inhibitory concentration against Aspergillus niger
- Assay type: functional
As shown below, each of these compounds has a reported MIC value.
Numeric answer only, unit µg/mL assumed.

Enquiry: Please give the measured MIC for this compound: `Cc1ccnc2c1-c1ccccc1C2=O`
Return: 100

Further cases:
Enquiry: What value of MIC has been recorded for this entry: `Cc1ccnc2c1C(=O)c1ccccc1-2`
Return: 100

Enquiry: # repeat for `COc1cccc2c1C(=O)c1cnccc1C2=O`
Return: 12.5

Enquiry: Query `O=C1c2ccncc2C(=O)c2c(O)cccc21` next
Return: 3.13

Enquiry: Proceed to `Cc1ccnc2c1C(=O)c1ccccc1C2=O`
Return: 100

Enquiry: Please give the result for `O=C1c2cnccc2C(=O)c2sccc21` too.
Return: 0.78

---

- System: Schizosaccharomyces pombe
- METHOD_DESCRIPTION: Minimum inhibitory concentration against Schizosaccharomyces pombe
- Assay type: functional
READOUT_LABEL: log10 MIC (log10 of the value in µg/mL)
In our notation, the value equals log10 of MIC in µg/mL.

Worked cases, answers included:
Enquiry: I would be grateful if you could share the reported log10 MIC for `Cc1ccnc2c1C(=O)c1c(O)ccc(O)c1C2=O` .
Return: 0.80

Enquiry: Here is the next compound: `COc1cccc2c1C(=O)c1cnccc1C2=O`
Return: 0.50

Enquiry: How about this compound: Cc1ccnc2c1C(=O)c1ccccc1-2 [ONYCHINE]
Return: 1.70

Enquiry: Now give it for `O=C1c2cnccc2C(=O)c2sccc21` too.
Return: -0.41

Enquiry: Same question for `Cc1ccnc2c1C(=O)c1cccc(O)c1C2=O` please.
Return: 1.10

Enquiry: Now the same for `Cc1ccnc2c1-c1ccccc1C2=O`
Return: 2.00

Enquiry: // same read-out, input: `O=C1c2cnccc2C(=O)c2c(O)cccc21`
Return: -0.70

Enquiry: Please answer likewise for `Cc1cnc2c(c1)C(=O)c1cccc(O)c1C2=O`
Return: 1.10

Enquiry: Same thing, different compound: `O=C1c2ccncc2C(=O)c2c(O)cccc21`
Return: -0.11

Enquiry: Do the same for `O=C1c2ccccc2C(=O)c2cnccc21` please
Return: 0.50

More entries:
Enquiry: // query log10 MIC value for entry `COc1cccc2c1C(=O)c1ccncc1C2=O`
Return: 0.19

Enquiry: And Cc1ccnc2c1C(=O)c1ccccc1C2=O [CLEISTOPHOLINE] ?
Return: 1.40

---

// log10 MIC lookup, one value per entry
- Tested on: Saccharomyces cerevisiae
- METHOD_DESCRIPTION: Minimum inhibitory concentration against Saccharomyces cerevisiae
- Format: functional
On a log10 scale: recorded MIC, unit µg/mL.

Consider the reported log10 MIC for these compounds:
Enquiry: Given the entry `COc1cccc2c1C(=O)c1ccncc1C2=O` , report its measured log10 MIC.
Return: 1.40

Enquiry: How about `O=C1c2cnccc2C(=O)c2c(O)cccc21` ?
Return: 0.50

Enquiry: // query: `O=C1c2ccncc2C(=O)c2c(O)cccc21`
Return: 0.50

New cases:
Enquiry: What value of log10 MIC has been recorded for this entry: `Cc1ccnc2c1C(=O)c1c(O)ccc(O)c1C2=O`
Return: 1.10

Enquiry: Record: `O=C1c2cnccc2C(=O)c2sccc21`
Return: 0.19

Enquiry: Please give the result for `Cc1cnc2c(c1)C(=O)c1cccc(O)c1C2=O` too.
Return: 2.00

Enquiry: `Cc1ccnc2c1C(=O)c1ccccc1-2` , same question.
Return: 2.00

Enquiry: Moving on to the next compound: `Cc1ccnc2c1C(=O)c1ccccc1C2=O`
Return: 2.00

Enquiry: // repeat for `COc1cccc2c1C(=O)c1cnccc1C2=O` and report
Return: 1.40

Enquiry: And for `O=C1c2ccccc2C(=O)c2cnccc21` ?
Return: 1.10

Enquiry: And for `Cc1ccnc2c1C(=O)c1cccc(O)c1C2=O` ?
Return: 2.00

---

- System: Cyberlindnera jadinii
- METHOD_DESCRIPTION: Minimum inhibitory concentration against Candida utilis
- Assay type: functional
- EXPERIMENTAL_PARAMETERS: Williopsis jadinii
Property: MIC; scope: individual molecules
Return type: number; implicit unit µg/mL.

Completed entries (count: 4):
Enquiry: Name the recorded MIC for `O=C1c2ccncc2C(=O)c2c(O)cccc21` .
Return: 12.5

Enquiry: Param item: `COc1cccc2c1C(=O)c1cnccc1C2=O`
Return: 25

Enquiry: Request: `Cc1ccnc2c1C(=O)c1cccc(O)c1C2=O`
Return: 50

Enquiry: Try this molecule too: `O=C1c2cnccc2C(=O)c2sccc21`
Return: 3.13

Continuing:
Enquiry: MIC lookup needed for `Cc1ccnc2c1C(=O)c1c(O)ccc(O)c1C2=O` , thanks.
Return: 12.5

---

- System: Cyberlindnera jadinii
- METHOD_DESCRIPTION: Minimum inhibitory concentration against Candida utilis
- Type: functional
- EXPERIMENTAL_PARAMETERS: Williopsis jadinii
criterion met if MIC is below 20 µg/mL. criterion not met if not; exact matches included in criterion not met.

Reference set, count: 3
Enquiry: Given the entry `Cc1ccnc2c1-c1ccccc1C2=O` , would its reported MIC be below 20 µg/mL?
Return: criterion not met

Enquiry: Record: `O=C1c2cnccc2C(=O)c2c(O)cccc21`
Return: criterion met

Enquiry: Now give it for `Cc1ccnc2c1C(=O)c1ccccc1C2=O` too.
Return: criterion not met

Pending compound:
Enquiry: Consider the compound `Cc1cnc2c(c1)C(=O)c1cccc(O)c1C2=O` . Is its MIC strictly less than 20 µg/mL?
Return: criterion not met

---

- System: Pseudomonas aeruginosa
- METHOD_DESCRIPTION: Minimum inhibitory concentration against Pseudomonas aeruginosa
- Assay type: functional
READOUT_LABEL: MIC (µg/mL)
Form entry: value (µg/mL) — number only.

Enquiry: Form field - read-out: MIC; system: Pseudomonas aeruginosa; submitted item: `Cc1ccnc2c1C(=O)c1cccc(O)c1C2=O`
Return: 25

Enquiry: Okay, and `Cc1cnc2c(c1)C(=O)c1cccc(O)c1C2=O` ?
Return: 25

Enquiry: Now try `Cc1ccnc2c1C(=O)c1c(O)ccc(O)c1C2=O` .
Return: 12.5

Enquiry: Request: `O=C1c2cnccc2C(=O)c2c(O)cccc21`
Return: 3.13

Enquiry: Follow-up item: `Cc1ccnc2c1-c1ccccc1C2=O`
Return: 50

Enquiry: Again, but for `O=C1c2ccccc2C(=O)c2cnccc21`
Return: 6.25
